Sourced from ChEMBL document CHEMBL1201862

- Tested on: EKVX
- Test Method Notes: NCI tumour cell line growth inhibition, 48 h
The source made the active and inactive calls. No stated cut-off is given here; in the data, active = GI50 up to about 1.1 µM and inactive = higher.
Reported GI50 by item:

Compound	GI50
C=C(C)C(=O)O[C@H]1CC2=CC(CC(C)=C[C@H]3OC(=O)C(=C)C13)OC2=O (stereo partly drawn)	20.6 µM (inactive)
CCCCCCCCCCCC(=O)C1=C(O)CCC(O)C1=O (stereo not drawn)	5.86 µM (inactive)
C/C(=N\NC(=O)N/N=C(\C)c1ccccn1)c1ccccn1	19.3 µM (inactive)
O=C1C(Nc2ccccc2)=CC2=NCCc3n[nH]c1c32	41.1 µM (inactive)
CSCC[C@H]1C(=O)N=C(N)N1C(=O)OCc1ccccc1	53.6 µM (inactive)
COc1ccc2c(c1)CCC(CN1CCN(CCOC(c3ccc(F)cc3)c3ccc(F)cc3)CC1)C2O (stereo not drawn)	11.6 µM (inactive)
[N-]=[N+]=NC(CI)c1cn([C@H]2C[C@H](O)[C@@H](CO)O2)c(=O)[nH]c1=O (stereo partly drawn)	> 100 µM (inactive)
CC1=CCCC2C(C=O)(C1)CC(C)C2(CO)CC/C(=C/CO)CO (stereo not drawn)	> 100 µM (inactive)

Please supply the value of reported GI50 for the item Cc1ccc(S(=O)(=O)N/N=C(/c2nc3ccc([N+](=O)[O-])cc3nc2O)C(O)c2ccc(C(O)/C(=N\NS(=O)(=O)c3ccc(C)cc3)c3nc4ccc([N+](=O)[O-])cc4nc3O)cc2)cc1 (stereo not drawn)
81.7 µM (inactive)

Determine its reported GI50: Cc1c(NC(=O)Nc2c(Cl)cccc2Cl)c(=O)n(-c2ccccc2)n1C
> 100 µM (inactive)

Return reported GI50. Input compound: CCCCCCCCCCCCCCCCP(=O)([O-])OCC[N+](C)(C)C
20.1 µM (inactive)

Give the reported value of GI50 for this record: N#C/C(=C/c1ccco1)C(=O)c1ccccc1
> 100 µM (inactive)

Note down GI50 recorded for COc1cc(-c2nc3cc(F)ccc3s2)ccc1O
5.73 µM (inactive)

Specify reported GI50 for the compound shown: COc1cc(/C=C/C(=O)O)ccc1C(=O)OCc1ccccc1
> 100 µM (inactive)

Note down GI50 recorded for O=c1cnnc2sc(=S)[nH]n12
> 100 µM (inactive)

----------
// reported GI50 per item
- Test system: LOX IMVI
- Test Method Notes: NCI tumour cell line growth inhibition, 48 h
Calls of active or inactive are those of the source. No stated cut-off is given here; in the data, active = GI50 up to about 1.1 µM and inactive = higher.

                                   compound  assayed_target  property_label      observed_result
0       CCOP(=O)(/C=C/n1ccc(=O)[nH]c1=O)OCC        LOX IMVI            GI50  > 100 µM (inactive)
1  COc1ccc2c(-c3ccc(O)cc3)c(Oc3ccc(Cl)cc3)c(=O)oc2c1        LOX IMVI            GI50   11.1 µM (inactive)
2  Cc1ccc(C2=NOC(=O)[C@@H]3CCCC[C@@H]23)cc1        LOX IMVI            GI50  > 100 µM (inactive)
3  CC1CCCC(C(O)CC2CC(=O)N(c3ccccc3)C(=O)C2)C1=O (stereo unspecified)        LOX IMVI            GI50  > 100 µM (inactive)
4                   COC(=O)CCc1cccnc1/C=N/O        LOX IMVI            GI50  > 100 µM (inactive)

# next compound below
Provide measured GI50 value, entry: CNC(=O)C(C)C1CCC2(C)C=CC(=O)C(C)=C2C1O (stereo unspecified)
> 100 µM (inactive)
